- protocol: Resistance to Poly (ADP-Ribose) Polymerase inhibitor: Gene Identification via Genome-wide siRNA Screen
- reported.conditions: mouse BRCA2 R2336H ES cells, olaparib, CellTiter-Glo viability; stronger effect = higher value
Out of some 52,000 sequences screened, about 210 (0.4%) were called active. The sample as a whole holds a higher share of actives than the screen did.
endpoint.label: z-score
When you answer, write just the number.

- sequence.entry: "CGAAAGAAGGUGAGGGCUCTT against Ppp1r9a"
  endpoint.label: "z-score"
  recorded.number: -0.95

Fill blank: measured z-score of the sequence GGAGCUAAGACAGUUUGGATT against BC022133 is ____.
-1.16

Fill blank: measured z-score of the sequence GCUUUUACAAGACCUGUUCTT against Pde2a is ____.
1.02

Fill blank: measured z-score of the sequence CCACACUGAGGACUAUAUUTT against Cstf1 is ____.
0.623

Fill blank: measured z-score of the sequence GGCCCUUCCCAAAGUAUUATT against Mup3 is ____.
0.32

Fill blank: measured z-score of the sequence GGCCCACCUAUUUCAUCUCTT against Actl7b is ____.
0.808

Fill blank: measured z-score of the sequence CCUAUGCUAUGUAGUUUAATT against Adam21 is ____.
0.555

Fill blank: measured z-score of the sequence GGAGUGUGAUCAAGUUCAUTT against Eya4 is ____.
0.648

Fill blank: measured z-score of the sequence GGAACACCGAACAUAAAUATT against Gm610 is ____.
-0.526

Fill blank: measured z-score of the sequence GGACAGUGUUUACAAACUUTT against Fbxw7 is ____.
0.328

Fill blank: measured z-score of the sequence CCAUGGAGAAUCAUGACAGTT against Slfn1 is ____.
0.281

Fill blank: measured z-score of the sequence GGAGCCAAGUGUGAUUACATT against Pias3 is ____.
-1.38

* * *

- protocol: Resistance to Poly (ADP-Ribose) Polymerase inhibitor: Gene Identification via Genome-wide siRNA Screen
- reported.conditions: mouse BRCA2 R2336H ES cells, olaparib, CellTiter-Glo viability; stronger effect = higher value
- Description: The role of Poly (ADP-Ribose) Polymerase (PARP) proteins in DNA repair has been elegantly utilized for the synthetic lethality-based treatment of BRCA-deficient tumors by PARP inhibitors. […] Transfections were performed in 384 well plates (Corning 3707). […] Cell viability was measured using CellTiter Glo (Promega). […] PARPi (olaparib, AZD2281) was added 48 h post-transfection (500 nM) and viability (CellTiter Glo, Promega) was assayed 72 h later on a PerkinElmer Envision 2104 Multilabel plate reader. […]
The whole screen tested about 52,000 sequences, of which about 210 (0.4%) were called active. The entries come from a sample that favours actives as a whole.
Assign a class from recorded z-score; defined classes: bin A (below -0.2), bin B (-0.2 to below 0.5), bin C (0.5 or more)

Reference set, count: 3
- sequence.entry: "CGAACCUACAGAGCUCAUGTT against Rpl17"
  category: "bin A"
- sequence.entry: "GGUGUCUGUCAUGACCAUGTT against Tie1"
  category: "bin C"
- sequence.entry: "GGUUCUGAAGAUGGAGGUUTT against Ttbk1"
  category: "bin A"

Hi, small favor: classify CCAAAUUCAUUCUAGCUCGTT against Copeb by its z-score when you get a moment.
bin B

Hi, small favor: classify GCUGUAUUGAAGGUCCCUUTT against Olfr744 by its z-score when you get a moment.
bin A
